Origin of values: the supplement of paper PMC9112550

List of shrunken log2 fold change values.
tested on: Escherichia coli TOP10; assay: shrunken log2 fold change of peptide-encoding DNA abundance (4.5 h post-induction vs induction); higher = less antimicrobial activity (less host growth inhibition); details: time post-induction: 4.5 h; library: site-saturation at positions 5, 18, 19, 20
TEST READOUT: shrunken log2 fold change

CONSTRUCT SEQUENCE: RRIRQRPPRLPRPRPRPIMVPRP
TARGET DESC: Escherichia coli TOP10
TEST READOUT: shrunken log2 fold change
MEASURED NUMBER: -0.0523

CONSTRUCT SEQUENCE: RRIRGRPPRLPRPRPRPHEGPRP
TARGET DESC: Escherichia coli TOP10
TEST READOUT: shrunken log2 fold change
MEASURED NUMBER: 0.403

CONSTRUCT SEQUENCE: RRIRTRPPRLPRPRPRPDYKPRP
TARGET DESC: Escherichia coli TOP10
TEST READOUT: shrunken log2 fold change
MEASURED NUMBER: -0.303

CONSTRUCT SEQUENCE: RRIRERPPRLPRPRPRPIKNPRP
TARGET DESC: Escherichia coli TOP10
TEST READOUT: shrunken log2 fold change
MEASURED NUMBER: -1.13

CONSTRUCT SEQUENCE: RRIRSRPPRLPRPRPRPDRNPRP
TARGET DESC: Escherichia coli TOP10
TEST READOUT: shrunken log2 fold change
MEASURED NUMBER: -0.228

CONSTRUCT SEQUENCE: RRIRHRPPRLPRPRPRPFTNPRP
TARGET DESC: Escherichia coli TOP10
TEST READOUT: shrunken log2 fold change
MEASURED NUMBER: -0.0272

CONSTRUCT SEQUENCE: RRIRKRPPRLPRPRPRPPMHPRP
TARGET DESC: Escherichia coli TOP10
TEST READOUT: shrunken log2 fold change
MEASURED NUMBER: 0.636

CONSTRUCT SEQUENCE: RRIRWRPPRLPRPRPRPQHYPRP
TARGET DESC: Escherichia coli TOP10
TEST READOUT: shrunken log2 fold change
MEASURED NUMBER: -0.574

CONSTRUCT SEQUENCE: RRIRCRPPRLPRPRPRPHPCPRP
TARGET DESC: Escherichia coli TOP10
TEST READOUT: shrunken log2 fold change
MEASURED NUMBER: -0.579

CONSTRUCT SEQUENCE: RRIRRRPPRLPRPRPRPMWNPRP
TARGET DESC: Escherichia coli TOP10
TEST READOUT: shrunken log2 fold change
MEASURED NUMBER: 0.00386

CONSTRUCT SEQUENCE: RRIRMRPPRLPRPRPRPQCLPRP
TARGET DESC: Escherichia coli TOP10
TEST READOUT: shrunken log2 fold change
MEASURED NUMBER: -0.108

CONSTRUCT SEQUENCE: RRIRKRPPRLPRPRPRPTAQPRP
TARGET DESC: Escherichia coli TOP10
TEST READOUT: shrunken log2 fold change
MEASURED NUMBER: 1.88

CONSTRUCT SEQUENCE: RRIRRRPPRLPRPRPRPTNRPRP
TARGET DESC: Escherichia coli TOP10
TEST READOUT: shrunken log2 fold change
MEASURED NUMBER: 0.282

CONSTRUCT SEQUENCE: RRIRNRPPRLPRPRPRPGWTPRP
TARGET DESC: Escherichia coli TOP10
TEST READOUT: shrunken log2 fold change
MEASURED NUMBER: 0.0174

CONSTRUCT SEQUENCE: RRIRMRPPRLPRPRPRPSCSPRP
TARGET DESC: Escherichia coli TOP10
TEST READOUT: shrunken log2 fold change
MEASURED NUMBER: -0.0918

CONSTRUCT SEQUENCE: RRIRDRPPRLPRPRPRPMGMPRP
TARGET DESC: Escherichia coli TOP10
TEST READOUT: shrunken log2 fold change
MEASURED NUMBER: -0.069

CONSTRUCT SEQUENCE: RRIRMRPPRLPRPRPRPMTYPRP
TARGET DESC: Escherichia coli TOP10
TEST READOUT: shrunken log2 fold change
MEASURED NUMBER: 0.157

CONSTRUCT SEQUENCE: RRIRGRPPRLPRPRPRPFWRPRP
TARGET DESC: Escherichia coli TOP10
TEST READOUT: shrunken log2 fold change
MEASURED NUMBER: 0.297

CONSTRUCT SEQUENCE: RRIRYRPPRLPRPRPRPYKLPRP
TARGET DESC: Escherichia coli TOP10
TEST READOUT: shrunken log2 fold change
MEASURED NUMBER: -0.491

CONSTRUCT SEQUENCE: RRIRFRPPRLPRPRPRPRCSPRP
TARGET DESC: Escherichia coli TOP10
TEST READOUT: shrunken log2 fold change
MEASURED NUMBER: 0.717

CONSTRUCT SEQUENCE: RRIRIRPPRLPRPRPRPEWQPRP
TARGET DESC: Escherichia coli TOP10
TEST READOUT: shrunken log2 fold change
MEASURED NUMBER: 0.118

CONSTRUCT SEQUENCE: RRIRMRPPRLPRPRPRPERYPRP
TARGET DESC: Escherichia coli TOP10
TEST READOUT: shrunken log2 fold change
MEASURED NUMBER: 0.362

CONSTRUCT SEQUENCE: RRIRNRPPRLPRPRPRPWNCPRP
TARGET DESC: Escherichia coli TOP10
TEST READOUT: shrunken log2 fold change
MEASURED NUMBER: -0.0415

CONSTRUCT SEQUENCE: RRIRIRPPRLPRPRPRPRINPRP
TARGET DESC: Escherichia coli TOP10
TEST READOUT: shrunken log2 fold change
MEASURED NUMBER: -0.482

CONSTRUCT SEQUENCE: RRIRDRPPRLPRPRPRPLFKPRP
TARGET DESC: Escherichia coli TOP10
TEST READOUT: shrunken log2 fold change
MEASURED NUMBER: -0.221

CONSTRUCT SEQUENCE: RRIRYRPPRLPRPRPRPMALPRP
TARGET DESC: Escherichia coli TOP10
TEST READOUT: shrunken log2 fold change
MEASURED NUMBER: -0.142

CONSTRUCT SEQUENCE: RRIRTRPPRLPRPRPRPSQDPRP
TARGET DESC: Escherichia coli TOP10
TEST READOUT: shrunken log2 fold change
MEASURED NUMBER: -0.355

CONSTRUCT SEQUENCE: RRIRTRPPRLPRPRPRPQCYPRP
TARGET DESC: Escherichia coli TOP10
TEST READOUT: shrunken log2 fold change
MEASURED NUMBER: -0.256

CONSTRUCT SEQUENCE: RRIRGRPPRLPRPRPRPIQMPRP
TARGET DESC: Escherichia coli TOP10
TEST READOUT: shrunken log2 fold change
MEASURED NUMBER: -0.027

CONSTRUCT SEQUENCE: RRIRRRPPRLPRPRPRPMFWPRP
TARGET DESC: Escherichia coli TOP10
TEST READOUT: shrunken log2 fold change
MEASURED NUMBER: 0.506

CONSTRUCT SEQUENCE: RRIRMRPPRLPRPRPRPMIIPRP
TARGET DESC: Escherichia coli TOP10
TEST READOUT: shrunken log2 fold change
MEASURED NUMBER: -0.117

CONSTRUCT SEQUENCE: RRIRARPPRLPRPRPRPEFFPRP
TARGET DESC: Escherichia coli TOP10;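 also: peptides expressed intracellularly from a pBAD plasmid library in pooled LB shake-flask culture, induced with 0.3% L-arabinose, DNA abundance read by NGS, three biological replicates, DESeq2 with apeglm shrinkage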
TEST READOUT: shrunken log2 fold change
MEASURED NUMBER: 0.33
